assay: Plasma concentrations of phenserine and its metabolites in human plasma; assay type: in vivo; conditions: both sexes, in vivo, Hour 3
MEASUREMENT_KIND: concentration at 3 h (ng/mL)
Please give a number only; it is taken to be in ng/mL.

Example entries and their recorded answers appear below.
# get_value(readout='concentration at 3 h', item= `C[C@@]12CCN[C@@H]1Nc1ccc(OC(=O)Nc3ccccc3)cc12` )
7.62

Now the same for CN1CC[C@@]2(C)c3cc(OC(=O)Nc4ccccc4)ccc3N[C@@H]12 [N8-nor-phensereine, (−)-N8-norphenylcarbamoyleseroline]
4.28

Next up:
What measured concentration at 3 h goes with CN1c2ccc(OC(=O)Nc3ccccc3)cc2[C@]2(C)CCN[C@H]12 [N1-nor-phenserine, (−)-N1-norphenylcarbamoyleseroline] ?
0.8

* * *

test: Plasma concentrations of phenserine and its metabolites in wistar rat plasma; settings: in vivo, Hour 1
MEASUREMENT_KIND: concentration at 1 h (ng/mL)
Quick reminder: number only, in ng/mL, skip the unit.

Examples from the recorded data:
Value lookup for concentration at 1 h; key = CN1c2ccc(OC(=O)Nc3ccccc3)cc2[C@]2(C)CCN[C@H]12 [N1-nor-phenserine, (−)-N1-norphenylcarbamoyleseroline]
37.6

For C[C@@]12CCN[C@@H]1Nc1ccc(OC(=O)Nc3ccccc3)cc12 [N1,N8-bisnor-phenserine] then?
536

Turning to the following compound.
Consider the compound shown here: CN1CC[C@@]2(C)c3cc(OC(=O)Nc4ccccc4)ccc3N[C@@H]12 [N8-nor-phensereine, (−)-N8-norphenylcarbamoyleseroline] What is its recorded concentration at 1 h?
96.4

* * *

The following molecules are listed with their measured concentration at 1 h values.
experiment: Plasma concentrations of phenserine and its metabolites in beagle dog plasma; assay type: in vivo; conditions: beagle, in vivo, Hour 1

The cases that follow already have their concentration at 1 h on record.
Quick one: concentration at 1 h for CN1CC[C@@]2(C)c3cc(OC(=O)Nc4ccccc4)ccc3N[C@@H]12 [N8-nor-phensereine, (−)-N8-norphenylcarbamoyleseroline] ?
33.4 ng/mL

Proceed to CN1c2ccc(OC(=O)Nc3ccccc3)cc2[C@]2(C)CCN[C@H]12 [N1-nor-phenserine, (−)-N1-norphenylcarbamoyleseroline]
86.1 ng/mL

Others:
If you can, please state the reported concentration at 1 h value of `C[C@@]12CCN[C@@H]1Nc1ccc(OC(=O)Nc3ccccc3)cc12` .
235 ng/mL

* * *

assay: Plasma concentrations of phenserine and its metabolites in human plasma; type: in vivo; settings: both sexes, in vivo, Hour 2
// values below are reported concentration at 2 h
Hi, when you answer, please include the unit after the number. Thanks!

Please review the following examples before continuing.
May I ask what concentration at 2 h has been recorded for CN1c2ccc(OC(=O)Nc3ccccc3)cc2[C@]2(C)CCN[C@H]12 [N1-nor-phenserine, (−)-N1-norphenylcarbamoyleseroline] ?
1.19 ng/mL

Subsequent entry: `C[C@@]12CCN[C@@H]1Nc1ccc(OC(=O)Nc3ccccc3)cc12`
14.5 ng/mL

***
Which concentration at 2 h value belongs to CN1CC[C@@]2(C)c3cc(OC(=O)Nc4ccccc4)ccc3N[C@@H]12 [N8-nor-phensereine, (−)-N8-norphenylcarbamoyleseroline] ?
7.38 ng/mL

* * *

concentration at 2 h values by entry
assay: Plasma concentrations of phenserine and its metabolites in beagle dog plasma; type: in vivo; conditions: beagle, in vivo, Hour 2
State the value, then name its unit.

Reference set, count: 2
# get_value(readout='concentration at 2 h', item= C[C@@]12CCN[C@@H]1Nc1ccc(OC(=O)Nc3ccccc3)cc12 [N1,N8-bisnor-phenserine] )
220 ng/mL

For CN1CC[C@@]2(C)c3cc(OC(=O)Nc4ccccc4)ccc3N[C@@H]12 [N8-nor-phensereine, (−)-N8-norphenylcarbamoyleseroline] then?
28.2 ng/mL

Now turn to the next compound.
What value of measured concentration at 2 h is listed for CN1c2ccc(OC(=O)Nc3ccccc3)cc2[C@]2(C)CCN[C@H]12 [N1-nor-phenserine, (−)-N1-norphenylcarbamoyleseroline] ?
50.3 ng/mL
